- measurement-description: Lethal dose after peroral administration in mouse
- study-conditions: in vivo, po
The entries below come with measured LD50 values attached.
The answer is to be given in mg/kg; state only the numeric part.

Fill in: LD50 of Cc1ccc(S(=O)(=O)NC(=O)NN2CCCCCC2)cc1 [TOLAZAMIDE] is ___
1000

Can you handle COC(=O)c1cc(C)n(/C(=N\c2ccc(OC)cc2)c2ccccc2)n1 next?
1000

Can you handle COC(=O)c1cc(C)n(/C(=N\C2CCCCC2)c2ccccc2)n1 next?
1000

Can you handle CCCCNC(=N)NC(=N)N next?
300

---

- measurement-description: Lethal dose after intraperitoneal administration in mouse
- study-conditions: in vivo, ip
The entries below come with measured LD50 values attached.
The answer is to be given in mg/kg; state only the numeric part.

Fill in: LD50 of COC(=O)c1cc(C)n(/C(=N\C2CCCCC2)c2ccccc2)n1 is ___
1000

Can you handle CCCCNC(=N)NC(=N)N next?
140

Can you handle Cc1ccc(S(=O)(=O)NC(=O)NN2CCCCCC2)cc1 [TOLAZAMIDE] next?
1000

Can you handle COC(=O)c1cc(C)n(/C(=N\c2ccc(OC)cc2)c2ccccc2)n1 next?
1000

The measured values listed here are drawn from ChEMBL document CHEMBL1121771.
